Method summary: drug combination growth inhibition, ovarian cancer – cell-based, oncology-focused library, rucaparib conditional, profiling panel (AID 1508598)
Condition notes: patient-derived ovarian cancer cells, CellTiter-Glo viability, 144 h; at 0.0781 µM; OCI-P5x cells; with rucaparib 20 µM; stronger effect = lower value; 100% = cells with rucaparib alone
Would you mind telling me the reported viability of each entry?
Give bare numbers, in %.

Worked examples, 5 compounds total:
>  <Mol smiles>
NC1(c2ccc(-c3nc4ccn5c(=O)[nH]nc5c4cc3-c3ccccc3)cc2)CCC1

>  <Unit tag>
%

>  <Reported value>
98.1

$$$$
>  <Mol smiles>
Cc1ccc2nc(NC(=O)CSc3nc4c(c(=O)n3-c3ccccc3)SCC4)sc2c1

>  <Unit tag>
%

>  <Reported value>
101

$$$$
>  <Mol smiles>
CN(C)CC[C@H](CSc1ccccc1)Nc1ccc(S(=O)(=O)NC(=O)c2ccc(N3CCN(Cc4ccccc4-c4ccc(Cl)cc4)CC3)cc2)cc1[N+](=O)[O-]

>  <Unit tag>
%

>  <Reported value>
135

$$$$
>  <Mol smiles>
C[C@@H]1CN(CC(=O)Nc2ccc3c(c2)Cc2cccc(-c4cc(=O)cc(N5CCOCC5)o4)c2S3)C[C@H](C)O1

>  <Unit tag>
%

>  <Reported value>
107

$$$$
>  <Mol smiles>
CN1CCN(CCOc2cc(OC3CCOCC3)c3c(Nc4c(Cl)ccc5c4OCO5)ncnc3c2)CC1

>  <Unit tag>
%

>  <Reported value>
82.4

$$$$

// batch mode: one viability value per listed entry
1. O=C(c1cc(Cc2n[nH]c(=O)c3ccccc23)ccc1F)N1CCN(C(=O)C2CC2)CC1
2. CN(NC(=O)CC(=O)NN(C)C(=S)c1ccccc1)C(=S)c1ccccc1
3. CNC(=O)c1cc(Oc2ccc(NC(=O)Nc3cc(C(C)(C)C)nn3-c3ccc4ncccc4c3)c(F)c2)ccn1

[104, 98.6, 114]

Give the reported value of viability for this record: Cc1nc(Nc2n[nH]c3c2CN(C(=O)N[C@H](CN(C)C)c2ccccc2)C3(C)C)c2sccc2n1
59.9

====

Method summary: viability loss with induced miR-34 in A549 – imaging, A549 dox-inducible miR-34, nuclei and caspase counts, primary screen (AID 1347080)
Condition notes: A549 miR-34 inducible, Hoechst nuclei count, 48 h; measured here: relative caspase fold change +Dox/-Dox
Would you mind telling me the reported fold change of each entry?
Numbers only.

>  <Molecule>
CCOC(=O)C1=C(C)NC(c2ccccc2)=C(C(=O)OCc2ccc([N+](=O)[O-])cc2)C1C#Cc1ccccc1 (configuration not stated)

>  <Reported value>
0.543

$$$$
>  <Molecule>
CNC(=O)Nc1ccc(-c2nc(N3CC4CCC(C3)O4)c3cnn(C4CCC5(CC4)OCCO5)c3n2)cc1

>  <Reported value>
0.588

$$$$
>  <Molecule>
NS(=O)(=O)c1nn2cc(-c3ccccc3)nc2s1

>  <Reported value>
0.795

$$$$
>  <Molecule>
CC1(C)CNc2cc(NC(=O)c3cccnc3NCc3ccncc3)ccc21

>  <Reported value>
0.926

$$$$
>  <Molecule>
Cc1ccc(C(=O)Nc2ccc(CN3CCN(C)CC3)c(C(F)(F)F)c2)cc1C#Cc1cnc2cccnn12

>  <Reported value>
1.05

$$$$

// batch mode: one fold change value per listed entry
1. OC[C@H]1O[C@@H](n2cnc3c(NC4CCCC4)nc(Cl)nc32)[C@H](O)[C@@H]1O
2. CNC(=O)c1ccc2cc(C3(O)CCn4cncc43)ccc2c1 (configuration not stated)
3. O=C(O)CCCCCC[C@H]1C(=O)NC(=O)N1CCC(O)C1CCCCC1 (some centres not stated)
4. CCCCCCCC(=O)CC[C@@H]1[C@@H](C/C=C\CCCC(=O)OC(C)C)[C@@H](O)C[C@H]1O
5. O=C(NCCCN1CCC2(CC1)OCc1ccccc12)[C@H]1CCCN1Cc1ccccc1
6. CN1CCC(CNc2ccc3ncc(-c4cccc(OC(F)(F)F)c4)n3n2)CC1
7. CO[C@H]1C[C@@H]2CC[C@@H](C)[C@@](O)(O2)C(=O)C(=O)N2CCCC[C@H]2C(=O)O[C@H]([C@@H](C)C[C@@H]2CC[C@@H](O)[C@H](OC)C2)CC(=O)[C@H](C)/C=C(\C)[C@@H](O)[C@@H](OC)C(=O)[C@H](C)C[C@H](C)/C=C/C=C/C=C/1C
8. C=CC(=O)c1ccc2ccccc2c1

[0.662, 0.607, 1.38, 1.15, 1.86, 0.583, 1.23, 1.23]

// batch mode: one fold change value per listed entry
1. CC(C)OC(=O)CCC/C=C\C[C@@H]1[C@@H](/C=C/[C@H](O)CCc2ccccc2)[C@H](O)C[C@@H]1O
2. CCCCC[C@@H](O)/C=C/[C@H]1C[C@H]2C[C@@H]([C@@H]1C/C=C\CCCC(=O)O)C2(C)C
3. CCCCC[C@H](O)/C=C/[C@@H]1[C@H]2C/C(=C\CCCC(=O)O)C[C@H]2C[C@H]1O
4. CCCCC[C@H](O)/C=C/[C@@H]1[C@@H](C/C=C\CCCC(=O)NCCO)[C@@H](O)C[C@H]1O

1: 1.74; 2: 0.452; 3: 1.13; 4: 1.5
